system: K4 kissing-loop RNA reporter; assay: apparent KD of K4 kissing-loop reporter; higher = weaker reporter binding; details: Eterna round: R107; input ligand: tryptophan 2.4 mM;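 further: bound reporter read as fluorescence of individual clusters on recovered sequencing chips by microscopy, with normalized cluster intensities fitted with a binding model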
The threshold is inclusive: apparent KD of K4 kissing-loop reporter of exactly 200 nM counts as true (1); values below receive false (0).

| input_sequence | category_label |
| --- | --- |
| AAGGAAUGUAUAGAUUAUAUACAUUCAACAGAGGAUAUGCAUUAUUGCAGAAGGCUGAAUGCAGUGAUGUUGCAAUAAUUAUUUA [#09 K4 FMN A Same State] | false (0) |
| AGCGUCCCUACGGCCGCCACUGGGAGUGAUGUUCCCAGGUUAGGCCUGAGGAUACUAAGGAUCGCCAGGACCGGGUAGCGACCAU [Azaonbe] | false (0) |
| GGUCCGCACAUGAGUGAUGUUCAUGUAGAUACCAGUAUCGAAAGAUACCCUUGGCAGCUACGGCACGGACCGGCGGGAAACCGCC | false (0) |
| UGUCAUUGGUCGGCCGCCACUAGGACCGGGACUUCUCUAGUGAUGUUAGUCUGGUCGGCCGCCACUAGGACCGGGACCGAUGACU [KL-SSTryp-B14 #DoubleAptamer] | false (0) |
| AAAGGAGUGGAAGGAUAUCCUGGUGUGGGUGGUGUUAGUGAUGUUGGUGGUGCAGUGAUGUUGCGCGGAGAAGGUCCGGUAUUGG [BDazzled - #2 - Exc. FMN B] | true (1) |
| GAACGGCGGGCGGCCGCCACUGGUAUACGAGUGAUGUUCGGAUAUACGUGAUGUAAGGUAAUUAACAGGACCGGGUCAGGGCCGG [whbob_SS_Tryp_B_t20] | true (1) |
| GAAUUAUGUAGAAGGAGCGUUAGAAGGUAUAGGUGCGAGUGAUGUUUGGACUUGUUAAUUUGACAGGUAGGUCGCUACAGAAGGA [KL-SSArg B19 #analogue] | true (1) |
| ACUGGGUUGACGAAAGUCAACAAAUGAGAAGGAGCGCACGAAAGUGCAGGUAGGUCGCUCAUUCCAGUGAUGUUGGAUCACCAGA [#SwitchBubble 19 #K4Late] | true (1) |
| UGUACCGAGUCAGGAUAUCAAAAUAAUUGGAGUGAUGUUCCAAAUACGACUGACAAAGUCGGUCGAUGAGAAGGGACUUGGUACU [FmnBS 11 #SwitchBubble #StaticStem] | false (0) |
| UGUACCGAGUCAGGAUAUGACGACUAGUCAAAGACUGGUCGAAAAUCCAGUGAUGUUGGAAAUAAAUCAGAAGGGACUUGGUACU [FmnBS 16 #SwitchBubble #StaticStem] | true (1) |
| AGAGGAAAUAGAAGGAGCGGCGCCAGUGAUGUUGGAUGCCGCGGGUGAAUCAGGUCAUAGUGCCAGGUAGGUCGCUAUUUCAGCG [Larebeve] | false (0) |
| CUGGGUUGACGAAAAGUCAACAAAUGAGAAGGAGCGCACGAAAGUGCAGGUAGGUCGCUCAAUCCAGUGAUGUUGGGUCAUCCAG [#SwitchBubble 13 #K4Late] | true (1) |

---

test system: MS2 coat protein; test: apparent KD of MS2 coat protein; designed switch direction (-1 OFF switch, 1 ON switch): -1; higher = weaker reporter binding; settings: Eterna round: R95; input ligand: FMN 200 uM
The threshold is inclusive: apparent KD of MS2 coat protein of exactly 40 nM counts as Fulfilled; values below receive Not fulfilled.

| input_sequence | category_label |
| --- | --- |
| CGUGACUCAGGAUAUGUAUUAUAUCACAUGAGGAUCACCCAUGUCCAGCGAAAGCUGGAGGCAGAAGGGAGUCACG [Fiskers Ex 5 - 47] (puzzle: Exclusion 5) | Fulfilled |
| AGUACUAACACGAAAGUGUUAGUACAAUAAGCUUGUGAAACAUGAGGAUCACCCAUGUCCUCAUAAGCUCGUCUUAA [salish99_TOv2_r3_002] (puzzle: Sensor v3, turn-off variant 2) | Not fulfilled |
| UGUACUAACACGGAAGUGUUAGUACUAUAAGCUUGUGUUACAUGAGGAUCACCCAUGUCCUCAUAAGCUCGUCUUAA [Mat - Sensor v3 - Turn-off var 2 - D73] (puzzle: Sensor v3, turn-off variant 2) | Fulfilled |
| CGGGAGGGACAAGCUUUUUGCACGUCUGUUAUUGAUGCUACAUGAGGAUCACCCAUGUUUAGGGUGUGUGAGGAUGG [JR_SV3TOV2_Sub052] (puzzle: Sensor v3, turn-off variant 2) | Fulfilled |
| GAUAGAGAGCAGGAUAUCUUAGAUAUGUAAUAUAGAGAAGGGCUCACAUGAGGAUCACCCAUGUGGUCCUAGAU [JL Dibiri mod 14] (puzzle: Exclusion 6) | Fulfilled |
| GAGAAGUGAGGAUAUACGAUAAGGAUGAAAGGAAGGAAUGAGUAGAAGGCACAUGAGGAUCACCCAUGUAGAGU [JR_Exclu4_Sub079] (puzzle: Exclusion 4) | Not fulfilled |
| AGUAACCGUCACGAAAGUGAUGGUUACACAAGCAUAUGUACAUGAGGAUCACCCAUGUCCUCAAUUGCUCGUCUUAU [Sensor 3 - 54] (puzzle: Sensor v3, turn-off variant 2) | Fulfilled |
| AAAUACAAGUAAAGAUCCUACAUGAGGAUCACCCAUGUGCUCGUCUUGUAAAGUACUAUCACGAAAGUGAUAGUACU [Mat - Sensor v3 - turn-off var 1 - Eli Mod - D87] (puzzle: Sensor v3, turn-off variant 1) | Fulfilled |
